Listed below: inhibition in vivo at 10 mg/kg values for each entry.
Test system: Rattus norvegicus
Experiment: Inhibition of passive cutaneous anaphylaxis following 10 mg/kg p.o. administration.
Type: functional
Conditions: route oral

Smiles Entry | Output Unit | inhibition in vivo at 10 mg/kg
O=C(Nc1nn[nH]n1)c1cccnc1 | % | 3
O=C(Nc1nn[nH]n1)c1cccc(Oc2ccccc2)n1 | % | 0
CCCCc1ccnc(C(=O)Nc2nn[nH]n2)c1 | % | 54
CCCCc1cccc(C(=O)Nc2nn[nH]n2)n1 | % | 18
O=C(Nc1nn[nH]n1)c1cccc(Cl)n1 | % | 13
O=C(Nc1nn[nH]n1)c1cccc(Br)n1 | % | 48
O=C(Nc1nn[nH]n1)c1cccc(CCc2ccccc2)n1 | % | 45
COc1cccnc1C(=O)Nc1nn[nH]n1 | % | 0
O=C(Nc1nn[nH]n1)c1cc([N+](=O)[O-])ccn1 | % | 38
O=C(Nc1nn[nH]n1)c1cc(Br)ccn1 | % | 100
Cc1ccc(C(=O)Nc2nn[nH]n2)nc1C | % | 42

* * *

System: Rattus norvegicus
Assay: Inhibition of passive cutaneous anaphylaxis following 10 mg/kg p.o. administration.
Type: functional
Details: route oral
Short version: inhibition in vivo at 10 mg/kg at least 40% is satisfied, less is not satisfied.

Smiles Entry | Category Label
Cc1ccc(C(=O)Nc2nn[nH]n2)nc1 | satisfied
O=C(Nc1nn[nH]n1)c1ncccc1Cl | not satisfied
Cc1cc([N+](=O)[O-])cc(C(=O)Nc2nn[nH]n2)n1 | not satisfied
CSc1ccc(C(=O)Nc2nn[nH]n2)nc1 | not satisfied
CCCc1cccc(C(=O)Nc2nn[nH]n2)n1 | not satisfied
Cc1cccnc1C(=O)Nc1nn[nH]n1 | satisfied
COc1cccc(C(=O)Nc2nn[nH]n2)n1 | satisfied
CCCCOc1cccc(C(=O)Nc2nn[nH]n2)n1 | not satisfied
O=C(Nc1nn[nH]n1)c1cc(Cl)ccn1 | satisfied
COc1cc(C)nc(C(=O)Nc2nn[nH]n2)c1 | not satisfied
Cc1cc(Cl)cc(C(=O)Nc2nn[nH]n2)n1 | satisfied
COc1ccnc(C(=O)Nc2nn[nH]n2)c1 | satisfied
O=C(Nc1nn[nH]n1)c1ccccn1 | not satisfied
